These measurements were taken from paper PMC2857138.

# Study system: IP3R3 (Rattus norvegicus, UniProt Q63269)
# Sequence (Q63269 whole entry): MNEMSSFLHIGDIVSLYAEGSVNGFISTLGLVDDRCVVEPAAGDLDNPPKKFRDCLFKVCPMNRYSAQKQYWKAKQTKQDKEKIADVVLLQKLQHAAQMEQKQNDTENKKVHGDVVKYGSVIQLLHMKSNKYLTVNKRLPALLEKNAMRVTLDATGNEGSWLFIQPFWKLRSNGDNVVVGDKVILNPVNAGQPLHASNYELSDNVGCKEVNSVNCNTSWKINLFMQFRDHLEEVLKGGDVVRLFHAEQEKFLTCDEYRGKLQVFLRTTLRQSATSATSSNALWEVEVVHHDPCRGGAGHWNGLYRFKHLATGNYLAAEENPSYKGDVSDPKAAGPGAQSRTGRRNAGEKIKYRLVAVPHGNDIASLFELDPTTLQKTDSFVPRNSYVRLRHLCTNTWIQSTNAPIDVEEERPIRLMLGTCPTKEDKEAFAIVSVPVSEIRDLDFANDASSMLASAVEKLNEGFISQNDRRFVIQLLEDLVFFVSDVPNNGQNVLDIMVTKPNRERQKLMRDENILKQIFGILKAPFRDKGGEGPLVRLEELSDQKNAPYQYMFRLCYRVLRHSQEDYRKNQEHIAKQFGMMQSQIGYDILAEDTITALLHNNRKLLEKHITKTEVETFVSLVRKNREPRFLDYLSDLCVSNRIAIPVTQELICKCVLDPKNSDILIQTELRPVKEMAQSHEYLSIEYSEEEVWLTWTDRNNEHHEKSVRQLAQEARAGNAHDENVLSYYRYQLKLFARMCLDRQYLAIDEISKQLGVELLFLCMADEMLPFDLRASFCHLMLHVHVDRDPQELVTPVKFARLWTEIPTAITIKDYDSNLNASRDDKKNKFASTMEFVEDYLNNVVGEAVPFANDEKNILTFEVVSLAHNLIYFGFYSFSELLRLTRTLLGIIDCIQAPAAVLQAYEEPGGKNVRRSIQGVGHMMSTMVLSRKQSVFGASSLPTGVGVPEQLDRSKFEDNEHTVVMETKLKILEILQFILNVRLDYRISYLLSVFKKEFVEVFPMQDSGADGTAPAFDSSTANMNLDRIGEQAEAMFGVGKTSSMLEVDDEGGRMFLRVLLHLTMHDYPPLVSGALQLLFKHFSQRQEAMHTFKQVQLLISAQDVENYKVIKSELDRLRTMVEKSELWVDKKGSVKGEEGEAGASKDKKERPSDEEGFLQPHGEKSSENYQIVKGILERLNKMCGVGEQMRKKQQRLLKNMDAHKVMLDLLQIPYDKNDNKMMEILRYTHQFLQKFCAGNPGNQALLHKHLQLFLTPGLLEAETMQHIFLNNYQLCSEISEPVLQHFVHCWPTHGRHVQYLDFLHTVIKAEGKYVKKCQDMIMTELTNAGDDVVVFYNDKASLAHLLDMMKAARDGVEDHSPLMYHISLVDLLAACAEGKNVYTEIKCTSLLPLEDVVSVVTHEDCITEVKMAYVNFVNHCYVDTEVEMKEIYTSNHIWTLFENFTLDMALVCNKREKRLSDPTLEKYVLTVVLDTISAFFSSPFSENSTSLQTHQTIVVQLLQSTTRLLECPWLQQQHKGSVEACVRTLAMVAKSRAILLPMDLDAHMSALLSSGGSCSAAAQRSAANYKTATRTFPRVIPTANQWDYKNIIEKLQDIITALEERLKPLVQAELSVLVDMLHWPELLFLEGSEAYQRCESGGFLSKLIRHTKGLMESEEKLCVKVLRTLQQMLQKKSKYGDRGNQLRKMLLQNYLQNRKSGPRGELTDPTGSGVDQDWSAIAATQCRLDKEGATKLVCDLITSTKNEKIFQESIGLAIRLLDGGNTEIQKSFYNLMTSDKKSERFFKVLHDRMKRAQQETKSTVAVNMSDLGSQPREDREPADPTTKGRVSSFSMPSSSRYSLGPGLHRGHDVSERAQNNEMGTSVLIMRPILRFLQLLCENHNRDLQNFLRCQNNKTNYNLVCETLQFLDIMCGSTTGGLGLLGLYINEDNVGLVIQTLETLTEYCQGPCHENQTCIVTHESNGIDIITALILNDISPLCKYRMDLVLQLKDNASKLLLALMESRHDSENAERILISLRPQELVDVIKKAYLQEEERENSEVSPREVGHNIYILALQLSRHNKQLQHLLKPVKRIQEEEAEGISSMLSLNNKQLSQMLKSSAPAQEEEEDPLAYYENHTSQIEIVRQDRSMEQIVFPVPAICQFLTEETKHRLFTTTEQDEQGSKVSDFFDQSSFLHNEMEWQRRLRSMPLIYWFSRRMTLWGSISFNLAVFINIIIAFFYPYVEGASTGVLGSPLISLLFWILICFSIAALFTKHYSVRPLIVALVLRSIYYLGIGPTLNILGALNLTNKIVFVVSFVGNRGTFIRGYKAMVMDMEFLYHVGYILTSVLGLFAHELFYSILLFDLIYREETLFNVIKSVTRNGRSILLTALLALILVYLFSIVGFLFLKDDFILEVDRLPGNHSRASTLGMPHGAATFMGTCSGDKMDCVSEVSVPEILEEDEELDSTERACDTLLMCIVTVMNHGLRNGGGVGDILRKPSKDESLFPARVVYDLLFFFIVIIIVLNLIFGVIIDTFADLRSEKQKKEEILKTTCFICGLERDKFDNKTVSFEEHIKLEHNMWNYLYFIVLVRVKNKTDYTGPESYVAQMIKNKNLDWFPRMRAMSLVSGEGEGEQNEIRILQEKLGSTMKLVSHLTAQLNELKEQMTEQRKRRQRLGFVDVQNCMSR
# Test protocol: Ca2+ release from stores of permeabilized DT40 cells
Measurement type: EC50

* O=P(O)(O)O[C@@H]1[C@H](O)[C@H](O)[C@@H](OP(=O)(O)O)[C@H](OP(=O)(O)O)[C@H]1O | 0.255 µM
